Source listed as patent US20230012273A1.

# TARGET_UNDER_TEST: T1, cynoSIRPα (XP_015313155), Extracellular Domain + His-Tag (cynomolgus monkey)
# T1 construct: also called CySIRPα XP_015313155; not shown: His-Tag
# T1 chain: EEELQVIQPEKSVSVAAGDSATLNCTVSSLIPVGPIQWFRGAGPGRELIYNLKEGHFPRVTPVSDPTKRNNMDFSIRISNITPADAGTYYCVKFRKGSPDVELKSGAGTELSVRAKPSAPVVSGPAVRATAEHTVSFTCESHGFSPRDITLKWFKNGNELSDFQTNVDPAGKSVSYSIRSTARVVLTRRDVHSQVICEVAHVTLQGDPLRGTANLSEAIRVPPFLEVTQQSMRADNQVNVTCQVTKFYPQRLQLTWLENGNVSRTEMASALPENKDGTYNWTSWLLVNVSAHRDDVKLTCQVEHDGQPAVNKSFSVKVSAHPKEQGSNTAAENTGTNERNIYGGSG
# EXPERIMENT_DESCRIPTION: SPR, antibody captured on Protein A/G, ECD-His analyte, steady-state fit
Each record here notes measured pKd.
Please report pKd as the negative decimal logarithm of the molar concentration, giving only the number.

Req: Report measured pKd; entry is Antibody A8 (antibody, human IgG1, kappa, L234A L235A, V domains shown) VH: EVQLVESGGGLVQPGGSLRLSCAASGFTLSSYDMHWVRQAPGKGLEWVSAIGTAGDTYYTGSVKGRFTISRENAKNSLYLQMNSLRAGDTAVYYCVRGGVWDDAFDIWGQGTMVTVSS VL: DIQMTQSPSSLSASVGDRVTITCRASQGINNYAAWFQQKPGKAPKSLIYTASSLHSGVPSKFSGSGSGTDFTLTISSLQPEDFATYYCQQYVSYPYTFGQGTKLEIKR
Resp: 6.38

With those in mind, consider the next binder.
Req: Return value of pKd for input Antibody A7 (antibody, human IgG1, kappa, L234A L235A, V domains shown) VH: EVQLVESGGGLVQPGGSLRLSCAASGFTLSSYDMHWVRQATGKGLEWVSAIGTAGDTYYTGSVKGRFTISRENAKNSLYLQMNSLRAGDTAVYYCVRGGVWDDAFDIWGQGTMVTVSS VL: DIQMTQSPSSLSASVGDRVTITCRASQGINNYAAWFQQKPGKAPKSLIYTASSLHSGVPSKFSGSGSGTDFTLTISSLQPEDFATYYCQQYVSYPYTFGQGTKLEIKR , no commentary.
Resp: 6.33
